TGT: B-RAF G466V (Homo sapiens, UniProt P15056, G466V)
Construct: expressed in transfected cells; host or cells: T-Rex 293 cells (Invitrogen #R71007)
Sequence (P15056 whole entry G466V): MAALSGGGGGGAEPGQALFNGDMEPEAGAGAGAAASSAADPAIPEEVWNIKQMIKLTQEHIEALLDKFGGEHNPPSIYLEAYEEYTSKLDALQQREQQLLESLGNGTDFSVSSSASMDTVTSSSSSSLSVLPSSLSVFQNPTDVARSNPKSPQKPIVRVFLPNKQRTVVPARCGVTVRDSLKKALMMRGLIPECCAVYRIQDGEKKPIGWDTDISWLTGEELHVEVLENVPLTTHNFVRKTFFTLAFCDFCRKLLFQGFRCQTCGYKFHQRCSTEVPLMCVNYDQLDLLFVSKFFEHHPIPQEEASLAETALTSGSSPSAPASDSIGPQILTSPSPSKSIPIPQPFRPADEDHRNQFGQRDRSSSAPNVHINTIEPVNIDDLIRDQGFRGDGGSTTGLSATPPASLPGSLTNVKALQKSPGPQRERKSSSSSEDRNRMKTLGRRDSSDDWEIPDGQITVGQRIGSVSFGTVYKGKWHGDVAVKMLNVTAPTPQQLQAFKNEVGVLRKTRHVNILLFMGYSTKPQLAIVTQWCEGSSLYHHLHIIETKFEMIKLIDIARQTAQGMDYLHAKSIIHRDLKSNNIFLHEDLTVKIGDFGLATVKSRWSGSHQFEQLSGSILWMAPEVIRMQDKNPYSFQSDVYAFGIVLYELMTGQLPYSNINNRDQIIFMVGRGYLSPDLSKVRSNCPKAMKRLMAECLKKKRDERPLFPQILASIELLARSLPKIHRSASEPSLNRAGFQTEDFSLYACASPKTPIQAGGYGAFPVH
TEST_PROTOCOL: Target protein degradation, assay D: T-Rex 293 cells, HA-BRAF_G466V, 384 well format
Type: cell-based
ASSAY_SETUP: T-REx-293, Assay D, T-Rex 293 HA-BRAF_G466V cells, 24 hours, Examples 83-269
ASSAY_ENDPOINT: Dmax

Please review the following examples before continuing.
MOLECULE	TGT	Dmax
N#Cc1c(NS(=O)(=O)N2CC[C@@H](F)C2)ccc(F)c1Oc1ccc2ncn(-c3ccc(N4CC(CN5CCC(c6ccc7c(c6)CN([C@H]6CCC(=O)NC6=O)C7=O)CC5)C4)cc3)c(=O)c2c1 [Example 189]	B-RAF G466V (Homo sapiens, UniProt P15056, G466V)	35 to 70%
N#Cc1c(NS(=O)(=O)N2CC[C@@H](F)C2)ccc(F)c1Oc1ccc2ncn(-c3ccc(N4CCN(CCCOc5cccc6c5C(=O)N(C5CCC(=O)NC5=O)C6=O)CC4)nc3)c(=O)c2c1 (stereo partly shown) [Example 150]	B-RAF G466V (Homo sapiens, UniProt P15056, G466V)	≤ 35%
N#Cc1c(NS(=O)(=O)N2CC[C@@H](F)C2)ccc(F)c1Oc1ccc2ncn(-c3ccc(N4CCN(c5ccc6c(c5)C(=O)N(C5CCC(=O)NC5=O)C6=O)CC4)nc3)c(=O)c2c1 (stereo partly shown) [Example 161]	B-RAF G466V (Homo sapiens, UniProt P15056, G466V)	≤ 35%

Incoming: Param item = N#Cc1c(NS(=O)(=O)N2CC[C@@H](F)C2)ccc(F)c1Oc1ccc2ncn(-c3ccc(N4CC(CN5CC(c6ccc7c(c6)CN([C@@H]6CCC(=O)NC6=O)C7=O)C5)C4)cc3)c(=O)c2c1 [Example 205] ; retrieve measured Dmax.
Outgoing: ≤ 35%
